Source: the OPERA property sets (Mansouri et al. 2018)

# particulars: 25 °C
measurement_name: solubility (mM)

compound: O=C1C2CC=CCC2C(=O)N1SC(Cl)(Cl)Cl (stereo not drawn)
measurement_name: solubility
quantity_unit: mM
data_value: 0.017
//
compound: CCN(CC)C(=O)SCc1ccc(Cl)cc1
measurement_name: solubility
quantity_unit: mM
data_value: 0.109
//
compound: CC(C)[C@H](C(=O)OC(C#N)c1cccc(Oc2ccccc2)c1)c1ccc(OC(F)F)cc1 (stereo partly drawn)
measurement_name: solubility
quantity_unit: mM
data_value: 0.000133
//
compound: COC(=O)Nc1cccc(OC(=O)Nc2cccc(C)c2)c1
measurement_name: solubility
quantity_unit: mM
data_value: 0.0161
//
compound: CC(C)(C)C(=O)C(Oc1ccc(Cl)cc1)n1cncn1 (stereo not drawn)
measurement_name: solubility
quantity_unit: mM
data_value: 0.243
//
compound: CCCSP(=O)(OCC)SCCC
measurement_name: solubility
quantity_unit: mM
data_value: 3.09
//
compound: c1ccc2[nH]c(-c3cscn3)nc2c1
measurement_name: solubility
quantity_unit: mM
data_value: 0.248
//
compound: COP(=O)(NC(C)=O)SC (stereo not drawn)
measurement_name: solubility
quantity_unit: mM
data_value: 4470
//
compound: COC(=O)c1ccccc1CS(=O)(=O)NC(=O)Nc1nc(OC)cc(OC)n1
measurement_name: solubility
quantity_unit: mM
data_value: 0.292
//
compound: CNC(=O)Oc1ccc(SC)c(C)c1
measurement_name: solubility
quantity_unit: mM
data_value: 0.107
//
compound: Cn1c(=O)on(-c2ccc(Cl)c(Cl)c2)c1=O
measurement_name: solubility
quantity_unit: mM
data_value: 0.00575
//
compound: CC(C)C(Nc1ccc(C(F)(F)F)cc1Cl)C(=O)OC(C#N)c1cccc(Oc2ccccc2)c1 (stereo not drawn)
measurement_name: solubility
quantity_unit: mM
data_value: 6.29e-06
//
compound: CC(C)NC(=O)N1CC(=O)N(c2cc(Cl)cc(Cl)c2)C1=O
measurement_name: solubility
quantity_unit: mM
data_value: 0.0421
